Recorded IC50, one value per entry.
# Target Desc: hPTP1B1–400 (Homo sapiens, UniProt P18031)
# Sequence (P18031 1-400): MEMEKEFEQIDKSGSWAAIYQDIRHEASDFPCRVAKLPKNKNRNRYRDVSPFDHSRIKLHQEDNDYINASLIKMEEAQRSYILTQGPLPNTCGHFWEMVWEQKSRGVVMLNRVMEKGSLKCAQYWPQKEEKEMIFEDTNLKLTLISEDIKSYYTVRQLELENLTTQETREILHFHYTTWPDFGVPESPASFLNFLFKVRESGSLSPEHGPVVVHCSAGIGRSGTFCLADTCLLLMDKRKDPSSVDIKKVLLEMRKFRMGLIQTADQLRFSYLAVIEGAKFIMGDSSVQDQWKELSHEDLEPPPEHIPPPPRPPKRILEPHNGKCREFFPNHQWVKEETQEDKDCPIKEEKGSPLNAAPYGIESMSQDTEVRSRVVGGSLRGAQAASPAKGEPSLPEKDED
# Experiment Description: PTP1B inhibition assay (pNPP, spectrocolorimetric), long form
# Recorded Conditions: IC50 ± SD hPTP1B1–400, hPTP1B 66 nM, pNPP 0.5 mM, 37 °C, 15 min
Dear colleague, please return just the value in µM, with no unit written.

As a guide, the following entries are already answered.
- C[C@H](CCC(=O)O)C1CCC2C3CC[C@@H]4C[C@](O)(CNCc5ccc(C(=O)O)cc5)CC[C@]4(C)C3CC[C@@]21C.Cl (stereo partly drawn) [compound 6l]: 12.6
- C[C@H](CCC(=O)O)C1CCC2C3CC[C@@H]4C[C@](O)(CNCc5cc(C(F)(F)F)cc(C(F)(F)F)c5)CC[C@]4(C)C3CC[C@@]21C.Cl (stereo partly drawn) [compound 6o]: 11
- O=C(O)C(=O)Nc1sc2c(c1C(=O)O)CCNC2 [TCS401, reference compound]: 8.1

Fill in reported IC50 for this entry: C[C@H](CCC(=O)O)C1CCC2C3CC[C@@H]4C[C@](O)(CNCc5ccc(O)cc5)CC[C@]4(C)C3CC[C@@]21C (stereo partly drawn) [compound 6b]
26.9
